Below: a set of entries, each annotated with reported MIC.
Test system: Haemophilus influenzae
ASSAY EXPLANATION: Antimicrobial activity against drug-susceptible Haemophilus influenzae 4 after 20 hrs by agar dilution method
Assay type: functional
MEASUREMENT SETUP: Haemophilus influenzae, 20 h; read-out: MIC

SMILES INPUT	MIC [µg/mL]
CCOC(=O)[C@H]1[C@H](C)O[C@@H](O[C@H]2[C@H](N(C)C)[C@@H](O)[C@H](O[C@H]3[C@@H](CC=O)C[C@@H](C)[C@@H](O)CN(C)CCC[C@H](C/C=C/c4cccnc4)OC(=O)C[C@@H](OC(=O)CC)[C@@H]3OC)O[C@@H]2C)C[C@@]1(C)O	16
CCOC(=O)[C@H]1[C@H](C)O[C@@H](O[C@H]2[C@H](N(C)C)[C@@H](O)[C@H](O[C@H]3[C@@H](CC=O)C[C@@H](C)[C@@H](O)CN(C)CCC[C@H](CCCc4ccnc5ccccc45)OC(=O)C[C@@H](OC(=O)CC)[C@@H]3OC)O[C@@H]2C)C[C@@]1(C)O	16
CCOC(=O)[C@H]1[C@H](C)O[C@@H](O[C@H]2[C@H](N(C)C)[C@@H](O)[C@H](O[C@H]3[C@@H](CC=O)C[C@@H](C)[C@@H](O)CN(C)CCC[C@H](C/C=C/c4ccnc5ccccc45)OC(=O)C[C@@H](OC(=O)CC)[C@@H]3OC)O[C@@H]2C)C[C@@]1(C)O	8
CCOC(=O)[C@H]1[C@H](C)O[C@@H](O[C@H]2[C@H](N(C)C)[C@@H](O)[C@H](O[C@H]3[C@@H](CC=O)C[C@@H](C)[C@@H](OC(C)=O)CN(C)CCN(CCCCc4ccccc4)C(=O)C[C@@H](OC(=O)CC)[C@@H]3OC)O[C@@H]2C)C[C@@]1(C)OC(C)=O	16
